Target: HsFN3K D217A (Homo sapiens, UniProt Q9H479, D217A)
Sequence (Q9H479 whole entry D217A): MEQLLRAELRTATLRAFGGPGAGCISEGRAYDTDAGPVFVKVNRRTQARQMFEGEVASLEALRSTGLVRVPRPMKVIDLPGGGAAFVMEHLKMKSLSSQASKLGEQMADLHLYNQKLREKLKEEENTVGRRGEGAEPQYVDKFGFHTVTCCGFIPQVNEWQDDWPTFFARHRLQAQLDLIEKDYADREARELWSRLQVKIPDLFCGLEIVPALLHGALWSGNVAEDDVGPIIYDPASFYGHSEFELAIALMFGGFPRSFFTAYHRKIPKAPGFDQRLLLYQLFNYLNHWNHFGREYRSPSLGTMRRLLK
Experiment: Microscale thermophoresis
Conditions: read-out: binding affinity (KD) for ATP, MST
test readout: pKd
Schema: pKd number; meaning minus log10 of the concentration expressed in molar units.

Problem: Entry Nc1ncnc2c1ncn2[C@@H]1O[C@H](COP(=O)(O)OP(=O)(O)OP(=O)([O-])[O-])[C@@H](O)[C@H]1O.[Na+].[Na+] [ATP, Adenosine-5-triphosphate disodium salt] : reported pKd = ?
Solution: 5.46
